experiment: serotonin-gated TRPC4 signal block – cell-based, second counter screen, HEK293 TRPC4/5HT1a, Fluo-4, counter-screen for TRPC4 inhibitor project, confirmation (AID 434978); conditions: Fluo-4 calcium flux, at 10 µM, serotonin added to trigger calcium flux; hits give high values
Calls of active or inactive are those of the source.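 How the source made its calls: active means primary screen active whose calcium signal fell more than 3 SD beyond the full-serotonin control mean in both duplicate plates; inactive means the rest.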
quantity_measured: inhibition

| compound | observed_measurement |
| --- | --- |
| CCNc1nc(NC(C)(C)C)nc(N2CCCC2)n1 | 41.2% (active) |
| COc1ccc(C(CNC(=O)c2cccc(NS(=O)(=O)c3ccc(Br)cc3)c2)N(C)C)cc1 (stereo unspecified) | inactive |
| CN1CCCC(OC(=O)c2cc(Br)ccc2Cl)C1 (stereo unspecified) | inactive |
| CC1CCN(c2nc(Cl)nc(Nc3ccc([N+](=O)[O-])cc3)n2)CC1 | inactive |
| O=C(Nc1ncc(Br)s1)C(Cc1ccccc1)n1cccc1 (stereo unspecified) | inactive |
| CCOCc1cn(CC(=O)c2ccc(Cl)cc2)c(C)nc1=N | 13% (active) |
| Nc1c(C(=O)c2ccccc2)sc2nsc(SCCN3CCCC3)c12 | inactive |
| COc1cccc(O)c1CN1CCCC(C(=O)c2cccc(C(F)(F)F)c2)C1 (stereo unspecified) | 34.3% (active) |
| OCC1(CCc2ccccc2)CCN(Cc2cccn2-c2cccnc2)CC1 | inactive |
| CCCN(c1nc(C)cc(OC)n1)S(=O)(=O)c1ccccc1 | 25.2% (active) |

Record inhibition for all entries; do not skip any.
1. OCCC1CN(Cc2ccccc2-c2ccco2)CCN1Cc1ccccc1 (stereo unspecified)
2. O=[N+]([O-])c1ccc(O)c(C2=NNC(c3ccccc3F)C2)c1 (stereo unspecified)
3. CCc1ccc(Nc2n[n+](-c3ccccc3)c(/C=C/c3ccccc3)s2)cc1

## Result
["inactive", "inactive", "inactive"]

Report inhibition for every entry below.
1. CCOc1ccccc1CN1CCN(Cc2cccc3nonc23)CC1CCO (stereo unspecified)
2. COc1cccc(C2=NN(C(=O)c3ccco3)C(c3ccco3)C2)c1 (stereo unspecified)
3. O=C(Nc1ccccc1Oc1cccnc1)C1CCCN(Cc2cccc(Cl)c2)C1 (stereo unspecified)
4. CCOC(=O)C1(CC2CC2)CCN(Cc2cn[nH]c2-c2cccc(F)c2)CC1

## Result
1. inactive
2. 20.6% (active)
3. 33.5% (active)
4. inactive
